molecular target: cynomolgus monkey CD117 ectodomain (cynomolgus monkey); assay: BLI (Octet), biotinylated ectodomain on SA biosensor, 1:1 global fit, bivalent Fc
Provide the reported pKd of each item.
FYI, pKd means -log10 of a concentration in mol per litre.

Tell me its pKd given P-0060 (Fc fusion, also called P60; bivalent form of P27; not shown: Fc fragment) EVQLVESGGGLVRAGGSLRLSCAASGRTTFSTYWLGWFRQAPGKNREFVAAISWSAGMAYYQDSKGRFTISRDNTKNTAYLQMNSLQPEDTAVYYCAAGRFHPIRVDTALYWAQGTQVTVSS as the entry.
8.67

Tell me its pKd given P-0059 (Fc fusion, also called P59; bivalent form of P12; not shown: Fc fragment) QVQLVESGGGLVQAGGSLRLSCTASGDTFSSYSMGWFRQGPGKEREFVGGIRWSGGTTYYADSVKGRFTISRDNAKNTVYLQMNSLKREDTAVYYCAAVRRRWLIWQEEEYDYWGQGTLVTVSS as the entry.
10.95

Tell me its pKd given P-0055 (Fc fusion, also called P55; bivalent form of P31; not shown: Fc fragment) EVQLVESGGGLVRAGGSLRLSCAASGRTFTYDARAWFRQAPGKEREFVAAISWSGGSTYYPNSMKGRFTISRDNAKNTVYLQMNSLKPEDTAVYYCAADESFPAYYSDYALYRYWGQGTLVTVSS as the entry.
9.02

Tell me its pKd given P-0057 (Fc fusion, the alignment instead labels 'P35/P57' and 'P32/P56'; also called P57; not shown: Fc fragment) QVQLVESGGGLVQAGDSLRLSCAASGRTFSSYAMGWFRQAPGKEREFVASITSSGLVAYYGDSVEARFTISRDNAKNTVYLQMDSLKPEDTAVYYCAARQYVGSGSYYLKKEGGYEYWGPGTQVTVSS as the entry.
8.77

Tell me its pKd given P-0053 (Fc fusion, also called P53; bivalent form of P10; not shown: Fc fragment) QVQLVESGGGLVQAGGSLRLSCVASGRTFSSYAMGWFRQGPGKEREFAAAILSNGLTTYYADSVKGRFTISRDNAKDTVYLQMNSLKPEDTANYYCAAAFTPEFRDGGIWDDASVDYWGQGTQVTVSS as the entry.
11.87
